Measured values drawn from patent US20200022963A1 for this set.

experiment.summary: Pharmacokinetic profile after single oral, intranasal and intravenous betahistine in beagle dogs, Example 5
Format: in vivo
measurement.setup: female, beagle, dog, in vivo, iv, 0.44 mg/kg
Protocol: In this study, the pharmacokinetic profile of betahistine was evaluated after a single dose administration of betahistine in male and female beagle dogs (age 5-7 months; weight of 5-11 kg, within a range of 3 kg for each sex) for three routes of administration: oral, intranasal, and intravenous. On Day 1 of the study, betahistine (BH) was delivered orally at a dose of 12 mg/kg, 24 mg/kg, or 48 mg/kg. Each treatment group comprised 8 animals (4 males and 4 females). […]
experimental.readout: half-life
Output should be the measured figure followed by the unit it is expressed in.

half-life for CNCCc1ccccn1 [betahistine] ?
14.3 min

###

experiment.summary: Pharmacokinetic profile after single oral, intranasal and intravenous betahistine in beagle dogs, Example 5
Format: in vivo
measurement.setup: female, beagle, dog, in vivo, inhaled or intranasal, 6 mg/kg
experimental.readout: AUC(0-inf) (ng·h/mL)
Write it as a number; the unit ng·h/mL goes unstated.

Given the molecule O=C(O)Cc1ccccn1 , what is its reported AUC(0-inf)?
19000

###

experiment.summary: Pharmacokinetic profile after single oral, intranasal and intravenous betahistine in beagle dogs, Example 5
Format: in vivo
measurement.setup: female, beagle, dog, in vivo, iv, 0.44 mg/kg, Betahistine Plasma Concentration
experimental.readout: concentration at 6 h (ng/mL)
The reply should be a number in ng/mL, with the unit left off.

I would be grateful if you could share the reported concentration at 6 h for CNCCc1ccccn1 [betahistine] .
0.648

###

experiment.summary: Pharmacokinetic profile after single oral, intranasal and intravenous betahistine in beagle dogs, Example 5
Assay type: in vivo
measurement.setup: both sexes, beagle, dog, in vivo, po, 12 mg/kg, Betahistine Plasma Concentration
experimental.readout: concentration at 0.333 h (ng/mL)
Value expressed in ng/mL; do not type the unit.

Given CNCCc1ccccn1 , state its recorded concentration at 0.333 h.
7.96

###

experiment.summary: Pharmacokinetic profile after single oral, intranasal and intravenous betahistine in beagle dogs, Example 5
Type: in vivo
measurement.setup: male, beagle, dog, in vivo, po, 24 mg/kg, Betahistine Plasma Concentration
experimental.readout: concentration at 0 h (ng/mL)
Please reply with the bare figure in ng/mL and do not write the unit itself.

Name the reported concentration at 0 h value associated with the compound CNCCc1ccccn1
0

###

experiment.summary: Pharmacokinetic profile after single oral, intranasal and intravenous betahistine in beagle dogs, Example 5
Type: in vivo
measurement.setup: male, beagle, dog, in vivo, iv, 0.44 mg/kg
experimental.readout: Cmax (ng/mL)
Express your answer in ng/mL, writing the number without its unit.

| mol | result.unit | numeric.value |
| --- | --- | --- |
| O=C(O)Cc1ccccn1 | ng/mL | 736 |

Now turn to the next molecule.
Any idea what Cmax was measured for CNCCc1ccccn1 ?
58.2

###

experiment.summary: Pharmacokinetic profile after single oral, intranasal and intravenous betahistine in beagle dogs, Example 5
Type: in vivo
measurement.setup: female, beagle, dog, in vivo, inhaled or intranasal, 6 mg/kg, AUC(0-6)
experimental.readout: AUC(0-t) (ng·h/mL)
Please state the figure in ng·h/mL; there is no need to write the unit.

| compound | AUC(0-t), ng·h/mL |
| --- | --- |
| CNCCc1ccccn1 [betahistine] | 180 |

Could you now look at the following compound, please?
Would you kindly share the measured AUC(0-t) for O=C(O)Cc1ccccn1 [2-PAA, 2-pyridylacetic acid] ?
14800

###

# AUC(0-t) per record follows
experiment.summary: Pharmacokinetic profile after single oral, intranasal and intravenous betahistine in beagle dogs, Example 5
Type: in vivo
measurement.setup: male, beagle, dog, in vivo, po, 24 mg/kg, AUC(0-6)
Number first, unit second: that is the form wanted.

| mol | result |
| --- | --- |
| O=C(O)Cc1ccccn1 | 76400 ng·h/mL |

// moving on: another record for AUC(0-t)
Report AUC(0-t) for CNCCc1ccccn1 please.
34.5 ng·h/mL

###

experiment.summary: Pharmacokinetic profile after single oral, intranasal and intravenous betahistine in beagle dogs, Example 5
Format: in vivo
measurement.setup: female, beagle, dog, in vivo, po, 12 mg/kg, Betahistine Plasma Concentration
experimental.readout: concentration at 1 h

Entry CNCCc1ccccn1 [betahistine] : reported concentration at 1 h = ?
14.1 ng/mL

###

experiment.summary: Single ascending-dose clinical trial of intranasal betahistine in healthy volunteers (plasma pharmacokinetics, LC-MS/MS)
measurement.setup: both, human, plasma, inhaled or intranasal, 20 mg
experimental.readout: AUC(0-inf) (ng·h/mL)
I only need the number, in ng·h/mL, no unit after it.

Suppose we examine the compound CNCCc1ccccn1 [betahistine] ; what AUC(0-inf) value has been reported?
1.63

###

experiment.summary: Pharmacokinetic profile after single oral, intranasal and intravenous betahistine in beagle dogs, Example 5
Type: in vivo
measurement.setup: male, beagle, dog, in vivo, iv, 0.44 mg/kg
Protocol: In this study, the pharmacokinetic profile of betahistine was evaluated after a single dose administration of betahistine in male and female beagle dogs (age 5-7 months; weight of 5-11 kg, within a range of 3 kg for each sex) for three routes of administration: oral, intranasal, and intravenous. On Day 1 of the study, betahistine (BH) was delivered orally at a dose of 12 mg/kg, 24 mg/kg, or 48 mg/kg. Each treatment group comprised 8 animals (4 males and 4 females). […]
experimental.readout: half-life (min)
Kindly provide the numeric value in min only, without the unit symbol.

I would be grateful if you could share the reported half-life for CNCCc1ccccn1 [betahistine] .
55.8

###

experiment.summary: Pharmacokinetic profile after single oral, intranasal and intravenous betahistine in beagle dogs, Example 5
Type: in vivo
measurement.setup: male, beagle, dog, in vivo, po, 48 mg/kg, Betahistine Plasma Concentration
Method: In this study, the pharmacokinetic profile of betahistine was evaluated after a single dose administration of betahistine in male and female beagle dogs (age 5-7 months; weight of 5-11 kg, within a range of 3 kg for each sex) for three routes of administration: oral, intranasal, and intravenous. On Day 1 of the study, betahistine (BH) was delivered orally at a dose of 12 mg/kg, 24 mg/kg, or 48 mg/kg. Each treatment group comprised 8 animals (4 males and 4 females). […]
experimental.readout: concentration at 0.167 h (ng/mL)
API: value field is a number in ng/mL; no unit string.

# lookup: concentration at 0.167 h of CNCCc1ccccn1
35.7

###

experiment.summary: Pharmacokinetic profile after single oral, intranasal and intravenous betahistine in beagle dogs, Example 5
Type: in vivo
measurement.setup: male, beagle, dog, in vivo, iv, 0.44 mg/kg
Each entry below lists one item and its recorded AUC(0-inf) value.
Write the number in ng·h/mL without appending the unit.

| compound | AUC(0-inf) (ng·h/mL) |
| --- | --- |
| CNCCc1ccccn1 [betahistine] | 18.4 |

API: the following record is the query input.
AUC(0-inf) for O=C(O)Cc1ccccn1 [2-PAA, 2-pyridylacetic acid] ?
1760

###

experiment.summary: Pharmacokinetic profile after single oral, intranasal and intravenous betahistine in beagle dogs, Example 5
Assay type: in vivo
measurement.setup: female, beagle, dog, in vivo, po, 48 mg/kg
experimental.readout: AUC(0-inf) (ng·h/mL)
Return type: number; implicit unit ng·h/mL.

Which AUC(0-inf) is reported for this molecule? CNCCc1ccccn1 [betahistine]
69.2

###

experiment.summary: Pharmacokinetic profile after single oral, intranasal and intravenous betahistine in beagle dogs, Example 5
Type: in vivo
measurement.setup: male, beagle, dog, in vivo, po, 24 mg/kg, Betahistine Plasma Concentration
experimental.readout: concentration at 2 h (ng/mL)
Response body: numeric value in ng/mL, unit text excluded.

Looking for the measured concentration at 2 h of CNCCc1ccccn1 , can you help?
2.08

###

experiment.summary: Pharmacokinetic profile after single oral, intranasal and intravenous betahistine in beagle dogs, Example 5
Format: in vivo
measurement.setup: male, beagle, dog, in vivo, po, 24 mg/kg, Betahistine Plasma Concentration
experimental.readout: concentration at 0.333 h (ng/mL)
Could you give me the number in ng/mL? Just the number is fine.

Entry under review: CNCCc1ccccn1 [betahistine] . Reported concentration at 0.333 h?
23.9

###

experiment.summary: Pharmacokinetic profile after single oral, intranasal and intravenous betahistine in beagle dogs, Example 5
Assay type: in vivo
measurement.setup: female, beagle, dog, in vivo, inhaled or intranasal, 13 mg/kg
Entries and their measured AUC(0-inf) follow.
Note to self: number, then unit, no commentary.

| mol | result |
| --- | --- |
| O=C(O)Cc1ccccn1 | 25300 ng·h/mL |

Now, please, on to the next compound.
Recorded AUC(0-inf) of CNCCc1ccccn1 , please.
480 ng·h/mL

###

experiment.summary: Pharmacokinetic profile after single oral, intranasal and intravenous betahistine in beagle dogs, Example 5
Type: in vivo
measurement.setup: male, beagle, dog, in vivo, po, 48 mg/kg
experimental.readout: AUC(0-inf) (ng·h/mL)
Record the value in ng·h/mL, omitting the unit from your answer.

Entry CNCCc1ccccn1 [betahistine] has what AUC(0-inf)?
133
